Sourced from paper PMC5910400

# testTarget: P1243:G4S:P1156 two-warhead evasin (Amblyomma americanum | Ixodes ricinus, UniProt A0A0C9S461;V5HBW0)
# testDetails: BLI
Exercise: for every item that follows, state its recorded pKd.
Just the number, please; pKd means minus log10 of the concentration in mol/L.

Lookup result for CCL27 (protein) FLLPPSTACCTQLYRKPLSDKLLRKVIQVELQEADGDCHLQAFVLHLAQRSICIHPQNPSLSQWFEHQERKLHGTLPKLNFGMLRKMG ; measured pKd: 7.64

Lookup result for CCL5 (ligand) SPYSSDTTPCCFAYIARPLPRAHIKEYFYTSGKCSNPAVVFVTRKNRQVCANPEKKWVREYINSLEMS ; measured pKd: 8.47

Lookup result for CCL23 (ligand) RVTKDAETEFMMSKLPLENPVLLDRFHATSADCCISYTPRSIPCSLLESYFETNSECSKPGVIFLTKKGRRFCANPSDKQVQVCMRMLKLDTRIKTRKN ; measured pKd: 9.43

Lookup result for CCL8 (protein) QPDSVSIPITCCFNVINRKIPIQRLESYTRITNIQCPKEAVIFKTKRGKEVCADPKERWVRDSMKHLDQIFQNLKP ; measured pKd: 7.03

Lookup result for CCL3 (ligand) SLAADTPTACCFSYTSRQIPQNFIADYFETSSQCSKPGVIFLTKRSRQVCADPSEEWVQKYVSDLELSA ; measured pKd: 7.60
